Numbers sourced from patent US20240409617A1.

Listed binders paired with reported Response
system under test: B.1.351 Spike (SARS-CoV2)
endpoint: Response

binder="S1-R3-T1-C4 (Ab_8) scFv-Fc (scFv, V domains shown) VH: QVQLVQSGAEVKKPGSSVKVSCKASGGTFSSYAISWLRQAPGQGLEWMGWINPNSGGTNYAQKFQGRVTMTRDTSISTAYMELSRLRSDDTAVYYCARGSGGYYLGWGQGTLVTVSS VL: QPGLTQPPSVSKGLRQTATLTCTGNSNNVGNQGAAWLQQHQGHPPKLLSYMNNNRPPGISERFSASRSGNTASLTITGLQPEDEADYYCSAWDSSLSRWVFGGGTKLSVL" reading=0.0872
binder="Ab_14 scFv-Fc (scFv, V domains shown) VH: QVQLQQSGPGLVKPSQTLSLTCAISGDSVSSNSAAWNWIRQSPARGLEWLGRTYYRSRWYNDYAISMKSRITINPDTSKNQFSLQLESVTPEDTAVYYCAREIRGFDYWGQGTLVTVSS VL: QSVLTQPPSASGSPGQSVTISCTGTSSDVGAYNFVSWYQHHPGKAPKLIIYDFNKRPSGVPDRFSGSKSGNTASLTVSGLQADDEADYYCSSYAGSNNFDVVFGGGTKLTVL" reading=0.253
binder="Ab_27 scFv-Fc (scFv, V domains shown) VH: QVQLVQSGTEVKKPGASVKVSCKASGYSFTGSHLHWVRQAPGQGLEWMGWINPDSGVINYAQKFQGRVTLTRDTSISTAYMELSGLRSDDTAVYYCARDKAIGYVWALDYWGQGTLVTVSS VL: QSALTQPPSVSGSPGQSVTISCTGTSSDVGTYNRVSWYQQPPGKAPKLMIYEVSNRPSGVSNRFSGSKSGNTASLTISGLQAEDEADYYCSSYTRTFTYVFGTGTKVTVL" reading=0.0974
